tested on: Enterococcus faecalis 583 (VRE); experiment: microbe, parasite or virus in culture; type: cell-based; conditions: 24 h, read-out: Minimum Inhibitory Concentration, MIC
In this section, each of the compounds is paired with its reported MIC.
Provide the reading as a plain figure in µM.

                                   compound  value_unit  observed_measurement
0  O=C1C(c2ccccc2)C(O)=Nc2cc(-c3ccc(C(F)(F)F)cc3)nn21 (centres unmarked)          µM                  30.3
1  Cc1nn2c(=O)cc(-c3ccc(C(F)(F)F)nc3)[nH]c2c1-c1ccc(Cl)cc1Cl          µM                  0.31
2  CCc1nn2c(=O)cc(-c3ccc(C#N)cc3)[nH]c2c1-c1ccc(Cl)cc1Cl          µM                  32.1
3  Cc1c(-c2ccc(C#N)cc2)[nH]c2c(-c3ccc(Cl)cc3Cl)c(-c3ccccc3)nn2c1=O          µM                  1.25
4  O=c1[nH]c(-c2ccc(C(F)(F)F)cc2)nc2cc(Cl)ccc12          µM                   120
5  Cc1c(-c2ccc(C(F)(F)F)cc2)[nH]c2c(-c3ccc(Cl)cc3Cl)c(C3CC3)nn2c1=O          µM                  0.11
6        Nc1nc(-c2ccccc2)nc2c1cnn2-c1ccccc1          µM                   160

Let us examine a further case.
q: Quick one: give measured MIC for "CCc1nn2c(=O)c(C)c(-c3ccc(C(F)(F)F)cc3)[nH]c2c1-c1ccc(Cl)cc1Cl"
a: 132

Cited source for all entries: patent US20120178915A1
